Just for reference, the supplement of paper PMC9170038 is where these values come from.

tested on: MS2 coat protein; test: apparent KD of MS2 coat protein; designed switch direction (-1 OFF switch, 1 ON switch): -1; higher = weaker reporter binding; conditions: input ligand: none
METRIC NAME: apparent KD of MS2 coat protein (µM)
Write the number in µM without appending the unit.

GUGUAGUGAGGAUAUACAUGAGGAUCACCCAUGUGAAUAAGAUAGAAUAAGAUAAAGUGUAGAAGGUAUAGUGU [Excluse me!!! 17 - Jieux - Exclusion 3] (Eterna round: R96, puzzle: Exclusion 3): 0.0584
GUCAGCUCGUGAGGAUAUACAUGCGUGCUUCGGCACGUAUGAUAGAUCACAUGAGGAUCACCCAUGUAGAAGGCACGAGCUGAU [ENG2/4-A2] (Eterna round: R96, puzzle: Exclusion NG 2): 0.0118
AUGUUGUCAGGAUAUCGUUAAUUUAGUUGUUUGUAUUAGUUCGAGAAGGGACAUGAGGAUCACCCAUGUUUGAA [Ex4 #35] (Eterna round: R97, puzzle: Exclusion 4): 0.0348
GUUAACGCAGGAUAUUAGUACAUGCACAUGAGGAUCACCCAUGUUUAGUGGGUCUAGGAAUAAGAAGGGCGAUGAA [EX5 #21] (Eterna round: R97, puzzle: Exclusion 5): 0.227

Prompt: What does the record list as apparent KD of MS2 coat protein for GCGCUGUCAGGAUAUCGCGCGCGCGCGGAAAUGUGUGUGUGUGAGAAGGGACAUGAGGAUCACCCAUGUGGUGU [-28.5, -27.5 kcal, A 20%, 6-6bis] (Eterna round: R97, puzzle: Exclusion 4) ?
Response: 0.583

###

tested on: MS2 coat protein; assay: apparent KD of MS2 coat protein; higher = weaker reporter binding; conditions: Eterna round: R107; input ligand: none
METRIC NAME: apparent KD of MS2 coat protein (nM)
// return numeric value only (unit: nM, not printed)

Recorded results for 5 sequences are shown here.
AGAGUCUAGUCGGCCGCCACUCAUGUCCUAAGGACAUGAGGAUCACCCAUGUACCAAAGGUACAUGAGGACCGGGACUGGACUCA [Omei Tryp B SS C v1]: 75.9
CGUGGUUGAGAUGGGCCUCUGAUAAGUCUGCGAGGACCGGUACGGCCGCCACUCGAGGACAUGAGGAUCACCCAUGUACUUCGCG [Vequar]: 30.8
AAUAUAAUAUAAAUAAUAAUAAUAUCUGAUACCAGACUCUCAUGUGUCCCUUGGCAGCAGUAACAUGAGGAUCACCCAUGUAAUA [JR_Nu_SSTheophyA_Sub027]: 62.7
GGGCAAGAGGGAAGGAGCGUCGGCUGGGUAACAUGAGGAUCACCCAUGUAGCACAUGGUGUGGCAGGUAGGUCGCCCUCUGCCCU [SS-ArgB9]: 102
UUGUAUAUGCGAAGGAGCGGGAAAUAUAUAUAUAUAAUCCUAACAUGAGGAUCACCCAUGUCCCAGGUAGGUCGCGCAUAUAUGG [12.F]: 69.5

Prompt: Identify the measured apparent KD of MS2 coat protein of AUACAUGAGGAUCACCCAUGUAUAGAUGAAGGAGCGACCAGAGGGUCAGGUAGGUCGCAUCACAUGAGGAUCACCCAUGUACUUA [DOUBLE!!! :-D #9] for MS2 coat protein.
Response: 42.1

Prompt: Query the reported apparent KD of MS2 coat protein for MS2 coat protein; item: `GGAUAGGACACGGCCGCCACUACCUAGGAUACUAGCAACAUUUGGGUAUAUGAGGAUCACCCAUAUAGGACCGGGUGUCCUAUCG`
Response: 75.8
